target: hAM1R (human, UniProt Q16602)
assay explanation: cell-based or functional assay
Bridge positions count the residues as written; N and C are the ends. Square brackets hold non-standard residues; d marks the D form. Ends that are not written are not given here. Hyp = O=C(O)[C@@H]1C[C@@H](O)CN1; Cit = NC(=O)NCCC[C@H](N)C(=O)O
So I've got a bunch of binders here, and I need their hAM1R EC50 (cAMP) values.
Only the number, expressed in µM, is required.

Please report the measured hAM1R EC50 (cAMP) for GCRFGTCTVQRLAHQIYQFTDKDKDNVAPRSNIGPQGY [SEQ ID NO: 382]
0.00512

Provide hAM1R EC50 (cAMP) value for the following binder: GCRFGTCTVQRLAHQIYQFTDKDKDNVAPRTKISPNG[Hyp]-NH2 (disulfide 2-7 (inferred); ends not checked) [SEQ ID NO: 113]
2.98

Return the recorded hAM1R EC50 (cAMP) value; entry: GCRFGTCTVQRLAHQIYQFTDKDKDNVAPRTKISPQG[Hyp]-NH2 (disulfide 2-7 (inferred); ends not checked) [SEQ ID NO: 146]
2.98

Kindly indicate its recorded hAM1R EC50 (cAMP). Item: GCRFGTCTVQ[Cit]LAHFLYQFTDKDGAIAPRTKIGSQGY-NH2 (disulfide 2-7 (inferred); ends not checked) [SEQ ID NO: 282]
3.88
